In this section, each of the molecules is paired with its reported EC50.
# measurement_target: Metabotropic glutamate receptor 4 (Homo sapiens)
# Sequence (Q14833 whole entry): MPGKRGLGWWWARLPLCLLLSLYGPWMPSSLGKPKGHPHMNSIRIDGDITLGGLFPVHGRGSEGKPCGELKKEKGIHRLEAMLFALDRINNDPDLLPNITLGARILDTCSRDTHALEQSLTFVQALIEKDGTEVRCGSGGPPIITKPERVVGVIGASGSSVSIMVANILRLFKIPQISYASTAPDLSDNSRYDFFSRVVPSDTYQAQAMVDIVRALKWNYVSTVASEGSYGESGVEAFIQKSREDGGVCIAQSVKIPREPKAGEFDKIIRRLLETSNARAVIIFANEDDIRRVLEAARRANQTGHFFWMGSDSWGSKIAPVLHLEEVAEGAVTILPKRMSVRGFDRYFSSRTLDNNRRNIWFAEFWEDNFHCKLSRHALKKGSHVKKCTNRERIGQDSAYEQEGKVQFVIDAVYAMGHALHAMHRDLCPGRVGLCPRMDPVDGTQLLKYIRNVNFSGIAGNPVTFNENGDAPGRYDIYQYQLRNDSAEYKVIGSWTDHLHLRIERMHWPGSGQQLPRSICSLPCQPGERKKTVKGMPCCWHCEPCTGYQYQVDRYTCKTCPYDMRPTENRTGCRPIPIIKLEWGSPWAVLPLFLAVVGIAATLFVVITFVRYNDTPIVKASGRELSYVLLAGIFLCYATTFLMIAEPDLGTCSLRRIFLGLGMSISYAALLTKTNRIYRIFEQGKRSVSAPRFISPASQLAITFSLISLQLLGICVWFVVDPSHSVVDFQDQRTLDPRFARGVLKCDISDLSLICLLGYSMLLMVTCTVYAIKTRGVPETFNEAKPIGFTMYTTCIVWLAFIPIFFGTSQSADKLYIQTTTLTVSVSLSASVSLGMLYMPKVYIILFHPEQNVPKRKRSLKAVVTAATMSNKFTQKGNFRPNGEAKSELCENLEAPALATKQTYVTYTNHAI
# method_summary: Receptor Activity Assay: The disclosed compounds and compositions can be evaluated for their ability to act as a potentiator of metabotropic glutamate receptor activity, in particular mGluR4 activity, by any suitable known methodology known in the art. For example, Chinese Hamster Ovary (CHO) cells transfected with human mGluR4 or HEK cells co-transfected with rat mGluR4 and the G-protein regulated Inwardly Rectifying Potassium channel (GIRK) were plated in clear bottom assay plates for assay in a Hamamatsu FDSS Fluorometric Plate Reader. The cells were loaded with either a Ca2+-sensitive fluorescent dye or the thallium responsive dye and the plates were washed and placed into a suitable kinetic plate reader. For human mGluR4 assays, a fluorescence baseline was established for 3-5 seconds, the disclosed compounds were then added to the cells, and the response in cells was measured.
observed_property: EC50 (µM)

- compound_smiles: "CCc1nc(NC(=O)c2ccccn2)sc1S(=O)(=O)Cc1ccc(C)cc1"
  measurement_target: "Metabotropic glutamate receptor 4 (Homo sapiens)"
  unit_info: "µM"
  value_modifier: "="
  number: 0.45
- compound_smiles: "O=C(Nc1nc(CO)c(S(=O)(=O)Cc2c(F)cccc2F)s1)c1ccccn1"
  measurement_target: "Metabotropic glutamate receptor 4 (Homo sapiens)"
  unit_info: "µM"
  value_modifier: "="
  number: 8.81
- compound_smiles: "COc1ccc(CS(=O)(=O)c2sc(NC(=O)c3ccccn3)nc2C)cc1"
  measurement_target: "Metabotropic glutamate receptor 4 (Homo sapiens)"
  unit_info: "µM"
  value_modifier: "="
  number: 1.96
- compound_smiles: "Cc1nc(NC(=O)c2ccccn2)sc1S(=O)(=O)Cc1c(F)cccc1F"
  measurement_target: "Metabotropic glutamate receptor 4 (Homo sapiens)"
  unit_info: "µM"
  value_modifier: "="
  number: 0.312
- compound_smiles: "O=C(Nc1nc(C(F)(F)F)c(S(=O)(=O)Cc2ccccc2Cl)s1)c1ccccn1"
  measurement_target: "Metabotropic glutamate receptor 4 (Homo sapiens)"
  unit_info: "µM"
  value_modifier: "="
  number: 0.271
- compound_smiles: "Cc1cccc(S(=O)(=O)c2sc(NC(=O)c3ccccn3)nc2C)c1"
  measurement_target: "Metabotropic glutamate receptor 4 (Homo sapiens)"
  unit_info: "µM"
  value_modifier: "="
  number: 6.97
- compound_smiles: "Cc1nc(NC(=O)c2ccccn2)sc1S(=O)(=O)Cc1ccc(F)c(Cl)c1"
  measurement_target: "Metabotropic glutamate receptor 4 (Homo sapiens)"
  unit_info: "µM"
  value_modifier: "="
  number: 2.35
- compound_smiles: "CC(C)c1nc(NC(=O)c2ccccn2)sc1S(=O)(=O)Cc1ccccc1F"
  measurement_target: "Metabotropic glutamate receptor 4 (Homo sapiens)"
  unit_info: "µM"
  value_modifier: "="
  number: 3.66
- compound_smiles: "O=C(Nc1nc(C2CC2)c(S(=O)(=O)Cc2ccccc2Cl)s1)c1ccccn1"
  measurement_target: "Metabotropic glutamate receptor 4 (Homo sapiens)"
  unit_info: "µM"
  value_modifier: "="
  number: 2.98
- compound_smiles: "CCc1nc(NC(=O)c2ccccn2)sc1S(=O)(=O)Cc1ccc(Cl)cc1Cl"
  measurement_target: "Metabotropic glutamate receptor 4 (Homo sapiens)"
  unit_info: "µM"
  value_modifier: "="
  number: 0.939
- compound_smiles: "Cc1nc(NC(=O)c2ccccn2)sc1S(=O)(=O)Cc1ccc(Cl)cc1F"
  measurement_target: "Metabotropic glutamate receptor 4 (Homo sapiens)"
  unit_info: "µM"
  value_modifier: "="
  number: 0.255
- compound_smiles: "Cc1ccc(S(=O)(=O)c2sc(NC(=O)c3ccccn3)nc2C)cc1"
  measurement_target: "Metabotropic glutamate receptor 4 (Homo sapiens)"
  unit_info: "µM"
  value_modifier: "="
  number: 1.61
- compound_smiles: "O=C(Nc1ncc(S(=O)(=O)Cc2ccccc2Cl)s1)c1ccccn1"
  measurement_target: "Metabotropic glutamate receptor 4 (Homo sapiens)"
  unit_info: "µM"
  value_modifier: ">"
  number: 10
- compound_smiles: "O=C(Nc1nnc(S(=O)(=O)Cc2ccccc2)s1)c1ccccn1"
  measurement_target: "Metabotropic glutamate receptor 4 (Homo sapiens)"
  unit_info: "µM"
  value_modifier: ">"
  number: 10
- compound_smiles: "O=C(Nc1nc(C2CC2)c(S(=O)(=O)Cc2c(F)cccc2F)s1)c1ccccn1"
  measurement_target: "Metabotropic glutamate receptor 4 (Homo sapiens)"
  unit_info: "µM"
  value_modifier: ">"
  number: 10

The values you see were collected from ChEMBL document CHEMBL3886378.
